The measurements presented in this section are drawn from paper PMC11429909.

System: SK-MEL-5
METHOD_NOTES: Eight-day colony formation assay, melanoma SK-MEL-5
Format: cell-based, human
STUDY_CONDITIONS: Homo sapiens, 192 h; SK-MEL-5 melanoma; mean ± SEM of three experiments
ASSAY_METRIC: IC50
Remember to follow the number with its unit.

Please indicate IC50 recorded for c1ccc2sc(-c3ccc(CNc4ccc5nnnn5n4)o3)nc2c1
51 nM

----------
Tested on: human cord blood CD34+ cells
METHOD_NOTES: Bone marrow stem cell (hematopoietic trilineage) colony formation assay
Assay type: cell-based
STUDY_CONDITIONS: normal bone marrow; compound at 40 µM; 14 days; N = 2
ASSAY_METRIC: Mean Number of Colonies, % of Control, 14 days

Example cases with answers are listed next.
# COMPOUND, OBSERVED
rows = [
    ("O=C(Nc1nnn[nH]1)c1cc(-c2ccccc2)nc2ccccc12 [PRT-051]", "119 % of Control"),
    ("O=C(COC(=O)c1cccs1)c1ccc2[nH]c(=O)[nH]c2c1 [TYLT-003]", "94 % of Control"),
    ("c1ccc(CCc2n[nH]c(-c3ccccn3)n2)cc1 [FolC1-031]", "85 % of Control"),
]

From here, focus on the item given below.
Consider the compound c1ccc2sc(-c3ccc(CNc4ccc5nnnn5n4)o3)nc2c1 [Dxr2-017] . State its measured Mean Number of Colonies, % of Control, 14 days.
57 % of Control
